Test: Polarity of lipids
Type: physicochemical
Settings: lipids with a polarity of at most 30 mN/m
READOUT LABEL: Polarity mN/m
State the result as a value with its unit after it.

Previously resolved entries follow.
>  <COMPOUND>
CCCCCCCC(=O)OCCCCCCCC(C)C [Dermol 108, Isodecyl Octanoate]

>  <Polarity mN/m>
29.6 mN/m

$$$$
>  <COMPOUND>
CCCCCCCCC(CO)CCCCCC (stereo not drawn) [Isofol 16, Hexyl Decanol]

>  <Polarity mN/m>
24.3 mN/m

$$$$
>  <COMPOUND>
CCCCCCCCCCC(CO)CCCCCCCC (stereo not drawn) [Eutanol G, Octyldodecanol]

>  <Polarity mN/m>
24.8 mN/m

$$$$
>  <COMPOUND>
CCCCCCOCCCCCC [Dihexyl ether, Dihexyl Ether]

>  <Polarity mN/m>
29.2 mN/m

$$$$
>  <COMPOUND>
CCCCCCCCCC(=O)OCCCC(C)C [Dermol IHD, Isohexyl Decanoate]

>  <Polarity mN/m>
29.7 mN/m

$$$$

Per the records, this compound ( CC(C)CCCCCCCOC(=O)CC(C)CC(C)(C)C (stereo not drawn) [Dermol 109, Isodecyl 3,5,5-Trimethyl Hexanoate] ) has Polarity mN/m equal to 29.1 mN/m

Per the records, this compound ( CC(C)CCCCCCCOC(=O)C(C)(C)C [DUB VCI 10, Isodecyl Neopentanoate] ) has Polarity mN/m equal to 29.9 mN/m

Per the records, this compound ( CCCCCCC(CCCC)C(=O)O (stereo not drawn) [Isocarb 12, Butyl Octanoic Acid] ) has Polarity mN/m equal to 22.1 mN/m

Per the records, this compound ( CCCCC(CC)C(=O)OCCC(C)CC(C)(C)C (stereo not drawn) [Dermol 98] ) has Polarity mN/m equal to 26.2 mN/m
